compounds and their reported IC50
Molecular target: D(2) dopamine receptor (Rattus norvegicus)
Sequence (P61169 whole entry): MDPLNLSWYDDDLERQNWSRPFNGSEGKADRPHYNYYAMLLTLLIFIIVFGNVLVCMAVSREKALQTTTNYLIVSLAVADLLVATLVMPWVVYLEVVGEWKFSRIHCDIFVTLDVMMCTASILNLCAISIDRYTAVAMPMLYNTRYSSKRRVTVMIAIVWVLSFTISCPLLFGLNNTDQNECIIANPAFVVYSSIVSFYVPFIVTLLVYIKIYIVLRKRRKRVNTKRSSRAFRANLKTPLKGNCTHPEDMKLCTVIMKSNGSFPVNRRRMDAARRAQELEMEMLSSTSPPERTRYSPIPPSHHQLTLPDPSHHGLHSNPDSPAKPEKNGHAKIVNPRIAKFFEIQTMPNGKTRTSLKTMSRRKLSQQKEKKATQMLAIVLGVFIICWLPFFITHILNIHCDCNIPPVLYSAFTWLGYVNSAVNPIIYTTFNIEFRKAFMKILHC
Test: Inhibition of the binding of radioligand [3H]spiperone to dopamine receptor D2 in rat brain synaptic membrane
Type: cell membranes

What does the data say about its IC50? Entry: CCOc1nc(NC)c(Cl)cc1C(=O)NC1CN(C)CCN(CC)C1 (configuration not stated)
42.9 nM

New cases:
For `CNc1nc(OC)c(C(=O)NC2CN(C)CCN(C)C2)cc1Cl` , what is its reported IC50?
137 nM

Consider next the compound CCN1CCN(C)CC(NC(=O)c2[nH]nc3ccccc23)C1 (configuration not stated) in the same way.
> 1000 nM

----------
Each record here notes measured inhibition in vivo at 1 mg/kg.
Test system: Canis familiaris
Test: Percent inhibition of apomorphine (0.3 mg/kg) induced emesis in dogs when 1 mg/kg of compound administered perorally
Type: functional
Settings: Canis lupus familiaris, route oral
Report as a plain number; the unit % is understood.

Study these solved cases before continuing.
Could you tell me which inhibition in vivo at 1 mg/kg is on file for CCN(CC)CCNC(=O)c1cc(Cl)c(N)cc1OC [METOCLOPRAMIDE] ?
100

Try the compound `CCN1CCN(C)C[C@H](NC(=O)c2cc(Br)c(NC)nc2OC)C1`
47

Can you handle `CCN1CCN(CC)CC(NC(=O)c2cc(Cl)c(NC)nc2OC)C1` next?
53

Next record, please: `CCN1CCN(C)C[C@@H](NC(=O)c2cc(Br)c(NC)nc2OC)C1`
100

New cases:
Sample `CCN1CCN(CC)CC(NC(=O)c2cc(Br)c(NC)nc2OC)C1` — what was its inhibition in vivo at 1 mg/kg?
69

Please answer likewise for CCN1CCN(C2CC2)CC(NC(=O)c2cc(Br)c(NC)nc2OC)C1 (stereo unspecified)
25
